System: M19-MEL
TEST_DESCRIPTION: NCI tumour cell line growth inhibition, 48 h
Calls of active or inactive are those of the source. No stated cut-off is given here; in the data, active = GI50 up to about 1.1 µM and inactive = higher.
RESULT_TYPE: GI50

Examples with their reported GI50 follow.
- COMPOUND: "C/C(=N\\NS(=O)(=O)c1ccc(C)cc1)c1cc2ccccc2n1C"
  ASSAY_TARGET: "M19-MEL"
  DATA_VALUE: "> 100 µM (inactive)"
- COMPOUND: "CC1=Nc2ccccc2S(=O)(=O)N1"
  ASSAY_TARGET: "M19-MEL"
  DATA_VALUE: "> 100 µM (inactive)"
- COMPOUND: "CCOC(C)C(/C=N/NC(N)=S)=NNC(N)=S (stereo not given)"
  ASSAY_TARGET: "M19-MEL"
  DATA_VALUE: "> 100 µM (inactive)"
- COMPOUND: "COc1cc2c(cc1OCc1ccccc1)CNCC2"
  ASSAY_TARGET: "M19-MEL"
  DATA_VALUE: "> 100 µM (inactive)"
- COMPOUND: "CCOc1ccc(/C=C2/C(=O)N=C(N)N=C2N)cc1OCC"
  ASSAY_TARGET: "M19-MEL"
  DATA_VALUE: "> 100 µM (inactive)"

The recorded GI50 for entry `Cc1ccc(Cl)c2c(=O)cc(-c3ccccc3)[nH]c12` equals 68.7 µM (inactive)

Kindly note the recorded GI50 for c1cncc(C2c3[nH]c4ccccc4c3CCN2CCN2CCCCC2)c1 (stereo not given) , which is > 100 µM (inactive)

The measured GI50 associated with `O=C(Nc1cc(Cl)ccc1Cl)c1cc2cccc(Cl)c2oc1=O` reads > 100 µM (inactive)

Reported GI50 of `O=c1[nH][nH]c(=O)[nH]1` : > 100 µM (inactive)

Just so you know, measured GI50 for C/C=C/C1=CC(=O)C(O)C1O (stereo not given) came out at 26.7 µM (inactive)

Per the records, this compound ( Cc1ccccc1N(CCC#N)C1=NN(C(=O)CC(=O)Nc2ccccc2)C(c2ccccc2)C1 (stereo not given) ) has GI50 equal to > 100 µM (inactive)

Memo: NCC(NC(=O)OCc1ccccc1)C(=O)O (stereo not given) , reported GI50: > 50 µM (inactive)

Looking up CCCCCCCCCCCCCCCC(=O)Nc1ccn(C2OC(CO)C(O)C2O)c(=O)n1 (stereo not given) , I found its GI50 recorded as 13.1 µM (inactive)

Input CC12CCC(=O)N1c1cccnc1N2 (stereo not given) . Output GI50: > 100 µM (inactive)
